assay: clinical; details: human, plasma, oral
Measurement Type: AUC(0-t) (ng·h/mL)
Give the value in ng·h/mL but do not write ng·h/mL after it.

Q: Look up AUC(0-t) for this molecule: O=C(NC[C@H]1CN(c2ccc(N3CCOCC3=O)cc2)C(=O)O1)c1ccc(Cl)s1
Ans: 1480

* * *

assay: clinical; conditions: human, plasma, oral
Measurement Type: Cmax (ng/mL)
Please give a number only; it is taken to be in ng/mL.

Q: Using the record for O=C(NC[C@H]1CN(c2ccc(N3CCOCC3=O)cc2)C(=O)O1)c1ccc(Cl)s1 [Rivaroxaban] , report its Cmax.
Ans: 124
